The origin of these recorded values is patent EP3959993B1.

Provide the recorded Distribution in [%] between oil phase and water phase after condensation: Water phase for the entries that follow.
Experiment: Influence of the amount of NaCl on the distribution between oil phase and water phase (Example 5)
Type: physicochemical
Conditions: NaCl 69.44 %
Report the figure in % without appending any unit label.

Recorded Distribution in [%] between oil phase and water phase after condensation: Water phase for CCC/C=C/C=O [trans-2-hexenal] , please?
16.7

Recorded Distribution in [%] between oil phase and water phase after condensation: Water phase for CC/C=C/CCO [trans-3-hexenol] , please?
3.8

Recorded Distribution in [%] between oil phase and water phase after condensation: Water phase for CCOC(=O)C(C)CC (stereo not shown) [ethyl 2-methyl butyrate] , please?
0.3

Recorded Distribution in [%] between oil phase and water phase after condensation: Water phase for CCCCOC(C)=O [butyl acetate] , please?
2.5

---

Provide the recorded Distribution in [%] between oil phase and water phase after condensation: Oil phase for the entries that follow.
Experiment: Influence of the amount of NaCl on the distribution between oil phase and water phase (Example 5)
Type: physicochemical
Conditions: NaCl 41.67%
Report the figure in % without appending any unit label.

Recorded Distribution in [%] between oil phase and water phase after condensation: Oil phase for CCCC(CC=O)OCC (stereo not shown) , please?
89

Recorded Distribution in [%] between oil phase and water phase after condensation: Oil phase for CCCCCC=O , please?
100

Recorded Distribution in [%] between oil phase and water phase after condensation: Oil phase for CC(=O)OCCc1ccccc1 [phenylethyl acetate] , please?
98

Recorded Distribution in [%] between oil phase and water phase after condensation: Oil phase for CCC/C=C/CO [trans-2-hexenol] , please?
82.6

---

Assay: Influence of the amount of NaCl on the distribution between oil phase and water phase (Example 5)
Type: physicochemical
Settings: NaCl 55.56 %
measured_property: Distribution in [%] between oil phase and water phase after condensation: Water phase (%)
Report the figure in % without appending any unit label.

Recorded Distribution in [%] between oil phase and water phase after condensation: Water phase for CCC/C=C/CO [trans-2-hexenol] , please?
11.6

Recorded Distribution in [%] between oil phase and water phase after condensation: Water phase for CCCCCO [pentanol] , please?
26.2

Recorded Distribution in [%] between oil phase and water phase after condensation: Water phase for CCC(C)COC(C)=O (stereo not drawn) [2-methyl butyl acetate] , please?
0.8

Recorded Distribution in [%] between oil phase and water phase after condensation: Water phase for CCCCCCCCO [octanol] , please?
0

Recorded Distribution in [%] between oil phase and water phase after condensation: Water phase for CCOC(=O)C(C)CC (stereo not drawn) [ethyl 2-methyl butyrate] , please?
1.2

Recorded Distribution in [%] between oil phase and water phase after condensation: Water phase for CCCCCCOC(C)=O [hexyl acetate] , please?
0

Recorded Distribution in [%] between oil phase and water phase after condensation: Water phase for CCCC(=O)OCC [ethyl butyrate] , please?
4.6

Recorded Distribution in [%] between oil phase and water phase after condensation: Water phase for CC/C=C/CCO [trans-3-hexenol] , please?
6.4

Recorded Distribution in [%] between oil phase and water phase after condensation: Water phase for CC/C=C\CCOC(C)=O [cis-3-hexenyl acetate] , please?
0

Recorded Distribution in [%] between oil phase and water phase after condensation: Water phase for CCCCOC(C)=O [butyl acetate] , please?
5

Recorded Distribution in [%] between oil phase and water phase after condensation: Water phase for CCOC(=O)CC [ethyl propionate] , please?
100

Recorded Distribution in [%] between oil phase and water phase after condensation: Water phase for O=Cc1ccccc1 [benzaldehyde] , please?
29.6

---

Test: Influence of the amount of NaCl on the distribution between oil phase and water phase (Example 5)
Format: physicochemical
Conditions: NaCl 69.44 %
Provide the recorded Distribution in [%] between oil phase and water phase after condensation: Water phase for the entries that follow.
Report the figure in % without appending any unit label.

Recorded Distribution in [%] between oil phase and water phase after condensation: Water phase for CCCCCC(=O)O , please?
3

Recorded Distribution in [%] between oil phase and water phase after condensation: Water phase for CC/C=C\CCO [cis-3-hexenol] , please?
14.4

Recorded Distribution in [%] between oil phase and water phase after condensation: Water phase for CCCCCCCCO , please?
0

Recorded Distribution in [%] between oil phase and water phase after condensation: Water phase for CCCCCO , please?
20.2

Recorded Distribution in [%] between oil phase and water phase after condensation: Water phase for CC/C=C\CCOC(C)=O [cis-3-hexenyl acetate] , please?
0

---

Assay: Influence of the amount of NaCl on the distribution between oil phase and water phase (Example 5)
Format: physicochemical
Conditions: NaCl 0%
measured_property: Distribution in [%] between oil phase and water phase after condensation: Oil phase
Be sure to follow the number with its unit.

Recorded Distribution in [%] between oil phase and water phase after condensation: Oil phase for CCC/C=C/CO [trans-2-hexenol] , please?
37.9%

Recorded Distribution in [%] between oil phase and water phase after condensation: Oil phase for CCCCCCO [hexanol] , please?
59.2%

Recorded Distribution in [%] between oil phase and water phase after condensation: Oil phase for CCCCCCOC(C)=O [hexyl acetate] , please?
93.4%

Recorded Distribution in [%] between oil phase and water phase after condensation: Oil phase for CC(=O)OCC(C)C [2-methylpropyl acetate] , please?
69.3%

Recorded Distribution in [%] between oil phase and water phase after condensation: Oil phase for CCCCOC(C)=O [butyl acetate] , please?
53.5%

Recorded Distribution in [%] between oil phase and water phase after condensation: Oil phase for CC/C=C\CCO [cis-3-hexenol] , please?
30.6%

Recorded Distribution in [%] between oil phase and water phase after condensation: Oil phase for CC(=O)OCCc1ccccc1 [phenylethyl acetate] , please?
70.8%

Recorded Distribution in [%] between oil phase and water phase after condensation: Oil phase for CCOC(=O)CC [ethyl propionate] , please?
0%

Recorded Distribution in [%] between oil phase and water phase after condensation: Oil phase for O=Cc1ccccc1 [benzaldehyde] , please?
27%

Recorded Distribution in [%] between oil phase and water phase after condensation: Oil phase for CCOC(C)=O [ethyl acetate] , please?
10.4%

Recorded Distribution in [%] between oil phase and water phase after condensation: Oil phase for CCC(C)CO (centres unmarked) [2-methyl butanol] , please?
30.8%

Recorded Distribution in [%] between oil phase and water phase after condensation: Oil phase for CCCC(=O)OCC [ethyl butyrate] , please?
49.4%

Recorded Distribution in [%] between oil phase and water phase after condensation: Oil phase for CCCCCO [pentanol] , please?
29.5%

Recorded Distribution in [%] between oil phase and water phase after condensation: Oil phase for CC(C)CCO [3-methyl butanol] , please?
28.4%

Recorded Distribution in [%] between oil phase and water phase after condensation: Oil phase for CC/C=C/CCO [trans-3-hexenol] , please?
51.8%

Recorded Distribution in [%] between oil phase and water phase after condensation: Oil phase for CCOC(=O)C(C)CC (centres unmarked) [ethyl 2-methyl butyrate] , please?
66.1%

Recorded Distribution in [%] between oil phase and water phase after condensation: Oil phase for CCC(C)COC(C)=O (centres unmarked) [2-methyl butyl acetate] , please?
79.3%

---

Provide the recorded Distribution in [%] between oil phase and water phase after condensation: Water phase for the entries that follow.
Assay: Influence of the amount of NaCl on the distribution between oil phase and water phase (Example 5)
Type: physicochemical
Details: NaCl 0%
Report the figure in % without appending any unit label.

Recorded Distribution in [%] between oil phase and water phase after condensation: Water phase for CCC(C)COC(C)=O (stereo not shown) [2-methyl butyl acetate] , please?
20.7

Recorded Distribution in [%] between oil phase and water phase after condensation: Water phase for CCCCCCCO [heptanol] , please?
23.8

Recorded Distribution in [%] between oil phase and water phase after condensation: Water phase for CCCCCC=O [hexanal] , please?
0

Recorded Distribution in [%] between oil phase and water phase after condensation: Water phase for CC(=O)OCCc1ccccc1 [phenylethyl acetate] , please?
29.2

Recorded Distribution in [%] between oil phase and water phase after condensation: Water phase for CCC/C=C/COC(C)=O [trans-2-hexenyl acetate] , please?
0

Recorded Distribution in [%] between oil phase and water phase after condensation: Water phase for CCCCCCCCO [octanol] , please?
8.7

Recorded Distribution in [%] between oil phase and water phase after condensation: Water phase for CCC(C)CO (stereo not shown) [2-methyl butanol] , please?
69.2

Recorded Distribution in [%] between oil phase and water phase after condensation: Water phase for CCC/C=C/CO [trans-2-hexenol] , please?
62.1

Recorded Distribution in [%] between oil phase and water phase after condensation: Water phase for CCOC(=O)CC [ethyl propionate] , please?
100

Recorded Distribution in [%] between oil phase and water phase after condensation: Water phase for CCCC(=O)OCC [ethyl butyrate] , please?
50.6

---

Experiment: Influence of the amount of NaCl on the distribution between oil phase and water phase (Example 5)
Format: physicochemical
Details: NaCl 27.8 %
measured_property: Distribution in [%] between oil phase and water phase after condensation: Water phase
Be sure to follow the number with its unit.

Recorded Distribution in [%] between oil phase and water phase after condensation: Water phase for CCC(C)COC(C)=O (stereo not drawn) [2-methyl butyl acetate] , please?
2.9%

Recorded Distribution in [%] between oil phase and water phase after condensation: Water phase for CCCCCCCO [heptanol] , please?
0%

Recorded Distribution in [%] between oil phase and water phase after condensation: Water phase for CCC/C=C/COC(C)=O [trans-2-hexenyl acetate] , please?
2.8%
